Target: T1, Human IL-23 (human, UniProt P29460 23-328; Q9NPF7 20-189)
T1 construct: Heterodimer of IL-12p40 covalently linked to IL-23p19, purchased (Ebiosciences or RnD Systems); also called hIL-23; rhIL23
T1 sequence 1: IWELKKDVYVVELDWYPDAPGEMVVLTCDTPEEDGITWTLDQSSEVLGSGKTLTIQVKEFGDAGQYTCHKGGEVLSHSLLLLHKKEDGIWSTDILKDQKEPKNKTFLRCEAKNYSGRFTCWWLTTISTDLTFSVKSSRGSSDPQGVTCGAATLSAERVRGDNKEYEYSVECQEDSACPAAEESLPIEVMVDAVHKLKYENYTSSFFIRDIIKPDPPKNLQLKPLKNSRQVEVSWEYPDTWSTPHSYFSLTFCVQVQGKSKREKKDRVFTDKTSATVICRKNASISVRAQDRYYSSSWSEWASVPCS
T1 sequence 2: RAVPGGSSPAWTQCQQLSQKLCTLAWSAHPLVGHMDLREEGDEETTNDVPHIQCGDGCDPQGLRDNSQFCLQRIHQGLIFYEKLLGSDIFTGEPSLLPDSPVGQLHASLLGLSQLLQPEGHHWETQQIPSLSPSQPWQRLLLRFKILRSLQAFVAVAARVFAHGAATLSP
Experiment: SPR (Biacore 3000), antibody captured on Protein A, IL-23 as analyte, 1:1 Langmuir fit
test.readout: koff (s⁻¹)
Give the number; s⁻¹ is assumed, so skip it.

// solved cases for koff follow
6-22 (antibody, human IgG1, kappa, V domains shown, Humanized form of E11E7; also called humanized antibody 6-22) VH: QVQLQESGPGLVKPSETLSLTCTVSGFSISSYNVHWIRQPPGKGLEWIGVIWTGGSTDYNPSLKSRVTISRDTSKNQFSLKLSSVTAADTAVYYCARDKYGLFPGYFDYWGQGTLVTVSS VL: DIVMTQSPDSLAVSLGERATINCKPSQSLLSSGNRKNYLAWYQQKPGQPPKLLIYYASTRQSGVPDRFSGSGSGTDFTLTISSLQAEDVAVYYCLQHFNYPWTFGQGTKLEIKR | 0.0004
8-22 (antibody, human IgG1, kappa, V domains shown, Humanized form of E11E7; also called humanized antibody 8-22) VH: QVQLQESGPGLVKPSETLSLTCTVSGFSLISYNVHWIRQPPGKGLEWIGVIWTGGSTDYNPSLKSRVTISRDTSKNQFSLKLSSVTAADTAVYYCARDKYGLFPGYFDYWGQGTLVTVSS VL: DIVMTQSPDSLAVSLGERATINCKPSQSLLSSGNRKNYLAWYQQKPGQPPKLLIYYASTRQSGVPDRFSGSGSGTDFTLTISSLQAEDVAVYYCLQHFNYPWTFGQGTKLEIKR | 0.000197
20-4 (antibody, human IgG1, kappa, V domains shown, Humanized form of E11E7; also called humanized antibody 20-4) VH: EVQLQQWGAGLLKPSETLSLTCAVYGFSLISYNVHWIRQPPGKGLEWIGVIWTGGSTDYNSVLKSRVTISVDTSKNQFSLKLSSVTAADTAVYYCARDKYGLFPGYFDYWGQGTLVTVSS VL: EIVLTQSPATLSLSPGERATLSCKPSQSLLSSGNRKNYLAWYQQKPGQAPRLLIYYASTRQSGIPDRFSGSGSGTDFTLTISRLEPEDFAVYYCLQHFNYPWTFGGGTKVEIKR | 0.000202
21-4 (antibody, human IgG1, kappa, V domains shown, Humanized form of E11E7; also called humanized antibody 21-4) VH: EVQLQQWGAGLLKPSETLSLTCAVYGFSLISYNVHWIRQPPGKGLEWIGVIWTGGSTDYNSVLKSRVTISRDTSKNQFSLKLSSVTAADTAVYYCARDKYGLFPGYFDYWGQGTLVTVSS VL: EIVLTQSPATLSLSPGERATLSCKPSQSLLSSGNRKNYLAWYQQKPGQAPRLLIYYASTRQSGIPDRFSGSGSGTDFTLTISRLEPEDFAVYYCLQHFNYPWTFGGGTKVEIKR | 0.000202

Now consider a different binder.
1-4 (antibody, human IgG1, kappa, V domains shown, Humanized form of E11E7; also called humanized antibody 1-4) VH: EVQLQQWGAGLLKPSETLSLTCAVYGGSFSSYNVHWIRQPPGKGLEWIGVIWTGGSTDYNSVLKSRVTISRDTSKNQFSLKLSSVTAADTAVYYCARDKYGLFPGYFDYWGQGTLVTVSS VL: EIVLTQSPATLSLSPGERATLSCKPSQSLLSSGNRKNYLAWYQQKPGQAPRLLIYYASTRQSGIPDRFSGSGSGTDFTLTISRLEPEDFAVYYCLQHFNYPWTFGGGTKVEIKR yielded koff of 0.000733
